For each of the binders below, state its fold change of affinity.
- Target of assay: T1, Human CD137 ECD (human)
- T1 construct: also called 4-1BB
- T1 sequence (chain, as listed by the source limits assumed): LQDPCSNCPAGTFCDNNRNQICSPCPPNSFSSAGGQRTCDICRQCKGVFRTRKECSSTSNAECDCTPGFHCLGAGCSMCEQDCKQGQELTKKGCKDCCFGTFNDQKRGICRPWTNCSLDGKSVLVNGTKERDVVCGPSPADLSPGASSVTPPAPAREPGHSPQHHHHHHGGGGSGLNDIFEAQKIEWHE
- Method summary: single mutant vs template dBBDu183H
Give bare numbers, in fold.

For orientation, consider the following solved cases.
H183/L072 VH G26D (antibody, name in Kabat numbering, V domains shown) VH: QVQLVESGGGLVQPGRSLRLSCAASDFTFSNAWMHWVRQAPGKGLEWVAQIKDKGNAYAAYYAPSVKGRFTISRDDSKNSIYLQMNSLKTEDTAVYYCHYVHYASASTVLPAFGVDAWGQGTTVTVSS VL: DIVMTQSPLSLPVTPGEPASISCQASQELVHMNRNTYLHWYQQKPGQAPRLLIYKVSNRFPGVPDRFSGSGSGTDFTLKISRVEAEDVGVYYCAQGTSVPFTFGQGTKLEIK    0.8
H183/L072 VH A56Q (antibody, name in Kabat numbering, V domains shown) VH: QVQLVESGGGLVQPGRSLRLSCAASGFTFSNAWMHWVRQAPGKGLEWVAQIKDKGNAYQAYYAPSVKGRFTISRDDSKNSIYLQMNSLKTEDTAVYYCHYVHYASASTVLPAFGVDAWGQGTTVTVSS VL: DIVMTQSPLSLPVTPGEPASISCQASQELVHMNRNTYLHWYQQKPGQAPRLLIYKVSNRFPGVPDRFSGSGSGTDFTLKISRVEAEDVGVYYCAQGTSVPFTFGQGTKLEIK    0.8

Now take the following binder into account.
Inquiry: What value of measured fold change of affinity is listed for H183/L072 VH A60G (antibody, name in Kabat numbering, V domains shown) VH: QVQLVESGGGLVQPGRSLRLSCAASGFTFSNAWMHWVRQAPGKGLEWVAQIKDKGNAYAAYYGPSVKGRFTISRDDSKNSIYLQMNSLKTEDTAVYYCHYVHYASASTVLPAFGVDAWGQGTTVTVSS VL: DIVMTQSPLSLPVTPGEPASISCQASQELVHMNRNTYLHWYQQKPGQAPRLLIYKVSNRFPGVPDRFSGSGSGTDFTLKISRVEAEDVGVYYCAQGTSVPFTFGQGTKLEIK ?
Reply text: 0.8
